# Read-out: Monocyte Chemoattractant Protein-1 (MCP1), CCL2 (gene 6347)
# Procedure Text: BSK_CASM3C_MCP1: BioMAP Diversity Plus: CASM3C Assay for Monocyte Chemoattractant Protein-1 (MCP1) Biomarker Activity (AID 2283046);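 also: MCP-1 level quantified by ELISA 24 h after dosing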
# Measurement Conditions: primary human coronary artery smooth muscle cells; actives raise or lower the signal
Calls of active or inactive are those of the source. The calls were made as follows: active = hit-call score of the fitted dose curve at least 0.9, where 1 is the maximum; inactive = score below 0.9.
Outcomes you can answer with include only these: active, inactive

Check out these entries, answers already filled in.
1. CN1CSC(=S)N(C)C1
inactive
2. ClC1C(Cl)C(Cl)C(Cl)C(Cl)C1Cl (stereo unspecified)
inactive
3. O=C(NC(=O)c1c(F)cccc1F)Nc1ccc(OC(F)(F)C(F)OC(F)(F)F)c(Cl)c1 (stereo unspecified)
inactive
4. C[C@H]1[C@H](c2ccc(Cl)cc2)SC(=O)N1C(=O)NC1CCCCC1
inactive
5. CCOc1nc(NC)nc(NC(=O)NS(=O)(=O)c2ccccc2C(=O)OC)n1
inactive

Give the logged outcome of this assay for the following compound: `COC(=O)c1ccccc1S(=O)(=O)NC(=O)Nc1nc(C)nc(OC)n1`
inactive

Give the logged outcome of this assay for the following compound: CCC(C)Nc1c([N+](=O)[O-])cc(C(C)(C)C)cc1[N+](=O)[O-] (stereo unspecified)
inactive

Give the logged outcome of this assay for the following compound: `CNC(=O)Oc1cccc(N=CN(C)C)c1`
inactive

Give the logged outcome of this assay for the following compound: CC(C)(C)C(O)C(Oc1ccc(Cl)cc1)n1cncn1 (stereo unspecified)
inactive

Give the logged outcome of this assay for the following compound: `COC(=O)c1ccccc1CS(=O)(=O)NC(=O)Nc1nc(OC)cc(OC)n1`
inactive

Give the logged outcome of this assay for the following compound: `O=[N+]([O-])c1c(Cl)c(Cl)c(Cl)c(Cl)c1Cl`
inactive

Give the logged outcome of this assay for the following compound: `Cc1[nH]c(=O)n(C(C)(C)C)c(=O)c1Cl`
inactive

Give the logged outcome of this assay for the following compound: CCC(C)(NC(=O)c1cc(Cl)c(C)c(Cl)c1)C(=O)CCl (stereo unspecified)
active

Give the logged outcome of this assay for the following compound: `CC(C)N(C(=O)COc1nnc(C(F)(F)F)s1)c1ccc(F)cc1`
inactive

Give the logged outcome of this assay for the following compound: `CNC(=O)Oc1ccccc1OC(C)C`
inactive

Give the logged outcome of this assay for the following compound: `O=S(=O)(O)C(F)(F)C(F)(F)C(F)(F)C(F)(F)C(F)(F)C(F)(F)C(F)(F)C(F)(F)F`
inactive

Give the logged outcome of this assay for the following compound: `OCCOc1ccccc1`
inactive

Give the logged outcome of this assay for the following compound: `C#CCN1C(=O)COc2cc(F)c(N3C(=O)C4=C(CCCC4)C3=O)cc21`
inactive

Give the logged outcome of this assay for the following compound: `O=[N+]([O-])/N=C1\NCCN1Cc1ccc(Cl)nc1`
inactive

Give the logged outcome of this assay for the following compound: CC(C)(C)C(O)/C(=C\c1ccc(Cl)cc1Cl)n1cncn1 (stereo unspecified)
inactive

Give the logged outcome of this assay for the following compound: `CCCN(CCC)c1c([N+](=O)[O-])cc(C(F)(F)F)cc1[N+](=O)[O-]`
inactive

Give the logged outcome of this assay for the following compound: `Cc1cc(C)nc(NC(=O)NS(=O)(=O)c2ccccc2C(=O)OC2COC2)n1`
inactive

Give the logged outcome of this assay for the following compound: `O=C(O)CCCOc1ccc(Cl)cc1Cl`
inactive

Give the logged outcome of this assay for the following compound: CCOC1Oc2ccc(OS(C)(=O)=O)cc2C1(C)C (stereo unspecified)
inactive

Give the logged outcome of this assay for the following compound: `COc1nn(CSP(=S)(OC)OC)c(=O)s1`
inactive

Give the logged outcome of this assay for the following compound: `CCOCN(C(=O)CCl)c1c(C)cccc1CC`
inactive
